B1: Azoarcus group I ribozyme (parent)
chain: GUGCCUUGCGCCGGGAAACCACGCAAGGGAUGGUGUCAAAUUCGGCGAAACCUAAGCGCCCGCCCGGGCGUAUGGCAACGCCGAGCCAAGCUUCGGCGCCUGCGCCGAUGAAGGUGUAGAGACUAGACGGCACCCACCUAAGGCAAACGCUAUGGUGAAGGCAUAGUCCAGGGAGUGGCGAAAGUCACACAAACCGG

variants of: B1; assay: reverse-splicing fitness (ratio to wild type); higher = more active; in vitro selection; Mg2+ level not given
attribute-measured: reverse-splicing fitness
Answer with the value's number alone.

Below, each entry is followed by its recorded reverse-splicing fitness result.
> print(dat)
                         variant.descriptor  endpoint.result
1  C82A A111G A120U A145G C150G C169U U176G          0.00328
2             A111G A120U A145G C169G U176G          0.00189
3        C82G A111U A145G C150G C169A U176G          0.00877
4             A120U A145G C150G C169U U176G           0.0045

Now let's try a different one.
GET /value?item= C82A A120G A145C C169G U176A &field=reverse-splicing fitness returns 0.0259
